So I've got a bunch of compounds here, and I need their pIC50 values.
target: renin in human high renin plasma (Homo sapiens, UniProt P00797); construct: from tissue; host or cells: human high renin plasma; experiment: Renin inhibitory effect in a human high renin plasma; type: biochemical
Sequence (P00797 67-406): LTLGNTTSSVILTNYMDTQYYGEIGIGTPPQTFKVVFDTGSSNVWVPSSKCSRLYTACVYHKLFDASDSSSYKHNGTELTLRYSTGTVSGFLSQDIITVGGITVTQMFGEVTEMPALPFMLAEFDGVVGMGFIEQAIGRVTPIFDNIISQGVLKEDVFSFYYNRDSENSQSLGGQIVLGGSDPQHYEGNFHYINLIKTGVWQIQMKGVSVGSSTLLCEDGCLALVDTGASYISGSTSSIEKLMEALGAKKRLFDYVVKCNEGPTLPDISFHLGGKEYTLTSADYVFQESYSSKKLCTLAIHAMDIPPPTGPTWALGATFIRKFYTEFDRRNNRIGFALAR
Give bare numbers, as −log10 of the molar value.

Worked examples follow.
compound	pIC50
CC(C)CNC(=O)C(O)[C@H](CC1CCCCC1)NC(=O)[C@H](Cc1c[nH]cn1)NC(=O)C(Cc1cccc2c1OCO2)Cc1cccc2c1OCO2 (mixture of isomers) [Compound Y]	5.47
O=C(N[C@@H](Cc1cnc[nH]1)C(=O)N[C@@H](CC1CCCCC1)C(O)C(=O)OC(CF)CF)C(Cc1ccccc1)Cc1ccccc1 (some centres unmarked) [Compound P]	6.89
Cc1ccccc1CC(Cc1ccccc1C)C(=O)N[C@@H](Cc1c[nH]cn1)C(=O)N[C@@H](CC1CCCCC1)C(O)C(=O)OC(C)C (mixture of isomers) [Compound W]	6.55
Cc1cccc(C)c1CC(Cc1c(C)cccc1C)C(=O)N[C@@H](Cc1c[nH]cn1)C(=O)N[C@@H](CC1CCCCC1)C(O)C(=O)OC(C)C (mixture of isomers) [Compound G]	5.48
Cc1cccc(CC(Cc2cccc(C)c2)C(=O)N[C@@H](Cc2c[nH]cn2)C(=O)N[C@@H](CC2CCCCC2)C(O)C(=O)OC(C)C)c1 (mixture of isomers) [Compound Q]	6.27

Consider the following items and state reported pIC50 for each.
1. CC(C)OC(=O)C(O)[C@H](CC1CCCCC1)NC(=O)[C@H](Cc1c[nH]cn1)NC(=O)C(Cc1ccccc1C#N)Cc1ccccc1C#N (mixture of isomers) [Compound T]
2. O=C(N[C@@H](Cc1c[nH]cn1)C(=O)N[C@@H](CC1CCCCC1)C(O)C(=O)OC1CCCC1)C(Cc1ccccc1F)Cc1ccccc1F (mixture of isomers) [Compound N]
3. CC(C)OC(=O)C(O)[C@H](CC1CCCCC1)NC(=O)[C@H](Cc1c[nH]cn1)NC(=O)C(Cc1ccccc1C(F)(F)F)Cc1ccccc1C(F)(F)F (mixture of isomers) [Compound B]
4. Cc1cccc(CC(Cc2cccc(C)c2C)C(=O)N[C@@H](Cc2c[nH]cn2)C(=O)N[C@@H](CC2CCCCC2)C(O)C(=O)OC(C)C)c1C (mixture of isomers) [Compound M]
5. CC(C)OC(=O)C(O)[C@H](CC1CCCCC1)NC(=O)[C@H](Cc1c[nH]cn1)NC(=O)C(Cc1cccc(F)c1)Cc1cccc(F)c1 (mixture of isomers) [Compound D]

1: 6.55; 2: 6.64; 3: 5.92; 4: 6.07; 5: 6.60

Find the recorded pIC50 belonging to O=C(N[C@@H](Cc1c[nH]cn1)C(=O)N[C@@H](CC1CCCCC1)C(O)C(=O)OC1CCCC1)C(Cc1ccccc1)Cc1ccccc1 (mixture of isomers) [Compound K] and report it.
6.55

###

biological target: renin in human high renin plasma (Homo sapiens); construct: from tissue; host or cells: human high renin plasma; test: Renin inhibitory effect in a human high renin plasma; format: biochemical
measurementLabel: pIC50
Give bare numbers, as −log10 of the molar value.

> print(dat)
                                   compound  measurementlabel  assayresult
1  CC(C)OC(=O)C(O)[C@H](CC1CCCCC1)NC(=O)[C@H](Cc1c[nH]cn1)NC(=O)C(Cc1ccc2c(c1)OCO2)Cc1ccc2c(c1)OCO2 (mixture of isomers)             pIC50         5.59
2  COc1ccccc1CC(Cc1ccccc1OC)C(=O)N[C@@H](Cc1c[nH]cn1)C(=O)N[C@@H](CC1CCCCC1)C(O)C(=O)OC(C)C (mixture of isomers)             pIC50         6.44
3  CC(C)OC(=O)C(O)[C@H](CC1CCCCC1)NC(=O)[C@H](Cc1c[nH]cn1)NC(=O)C(Cc1cccc2ccccc12)Cc1cccc2ccccc12 (mixture of isomers)             pIC50         6.37

// moving on: another record for pIC50
Data request, read-out pIC50, for CC(C)OC(=O)C(O)[C@H](CC1CCCCC1)NC(=O)[C@H](Cc1c[nH]cn1)NC(=O)C(Cc1ccccc1)Cc1ccccc1 (mixture of isomers)
6.59
